Target: UniProtKB O00763
Assay: ACC2 assay (spectrophotometric 384 well assay, NADH-linked kinetic method)
Format: biochemical
Conditions: hACC2 construct lacking 128 N-terminal amino acids; coupled lactate dehydrogenase/pyruvate kinase reaction, 340 nm, 25° C.
Description: Spectrophotometric 384 Well Assay Malonyl CoA formation by acetyl CoA carboxylases is stoichometrically linked to the consumption of ATP. ACC2 activity is measured in a NADH-linked kinetic method measuring ADP generated during the ACC reaction using a coupled lactate dehydrogenase/pyruvate kinase reaction. The protein is then expressed in insect cells using a baculoviral expression system. Protein purification is performed by anion exchange. […]
Binning scheme for IC50: Low = under 100 nM, Medium = from 100 nM up to 400 nM, High = 400 nM and over

Below are worked cases with known answers.
[[record]]
compound = "CCN(CCC#N)c1ncc(Cl)c(N2CC[C@@H](Oc3ccc([C@H](C)NC(C)=O)cc3)C2)n1 [Example 8.149]"
class_assignment = "Medium"

[[record]]
compound = "COC1CCN(c2ncc(Cl)c(N3CC[C@@H](Oc4ccc([C@H](C)NC(C)=O)cc4)C3)n2)CC1 [Example 8.153]"
class_assignment = "High"

[[record]]
compound = "CCOc1ncnc(N2CC[C@@H](Oc3ccc([C@H](C)NC(C)=O)cc3)C2)c1F [Example 7.26]"
class_assignment = "Medium"

[[record]]
compound = "CCCNc1ncnc(N2CC[C@@H](Oc3ccc([C@H](C)NC(C)=O)cc3)C2)c1F [Example 8.120]"
class_assignment = "High"

[[record]]
compound = "CC(=O)N[C@@H](C)c1ccc(O[C@@H]2CCN(c3ccnc(N(C)CC4CC4)n3)C2)cc1 [Example 8.3]"
class_assignment = "Medium"

[[record]]
compound = "CC(=O)N[C@@H](C)c1ccc(O[C@@H]2CCN(c3ncnc(NCC(C)(C)O)c3Cl)C2)cc1 [Example 8.296]"
class_assignment = "Medium"


INPUT: Where would CC(=O)N[C@@H](C)c1ccc(O[C@@H]2CCN(c3nc(N(C)C)ncc3Br)C2)cc1 [Example 8.58] land among the classes by reported IC50?
OUTPUT: High

INPUT: Hi there! Could you help me figure out the category for CC(=O)N[C@@H](C)c1ccc(O[C@@H]2CCN(c3ccnc(N4CCCC4C)n3)C2)cc1 (stereo partly shown) [Example 8.16] please?
OUTPUT: Medium

INPUT: Into which bin does this compound go? CC(=O)N[C@@H](C)c1ccc(O[C@@H]2CCN(c3nc(N4CCOCC4)ncc3Cl)C2)cc1 [Example 8.96]
OUTPUT: Medium

INPUT: Which IC50 category applies to CC(=O)N[C@@H](C)c1ccc(O[C@@H]2CCN(c3ncnc(OC4CCC4)c3F)C2)cc1 [Example 7.27] here?
OUTPUT: Low

INPUT: Class label required: C[C@H](NC(=O)c1cnco1)c1ccc(OC2CCN(c3ncnc(OCC4CC4)c3F)C2)cc1 (stereo partly shown) [Example 2.21]
OUTPUT: Low

INPUT: Band of CC(=O)N[C@@H](C)c1ccc(O[C@@H]2CCN(c3ncnc(NCC4(O)CCC4)c3Cl)C2)cc1 [Example 8.299] ?
OUTPUT: Low

INPUT: Tag the class for CC(=O)N[C@@H](C)c1ccc(O[C@@H]2CCN(c3ncnc(OCC4CC4)c3Cl)C2)cc1 [Example 7.20]
OUTPUT: Low

INPUT: Exercise: read the entry CC(=O)N[C@@H](C)c1ccc(O[C@@H]2CCN(c3ncnc(OC[C@@H]4CC4(F)F)c3F)C2)cc1 [Example 7.48] and state which class it falls under.
OUTPUT: Low

====

Molecular target: human ACC2 (Homo sapiens (Human), UniProt O00763)
Sequence (O00763 129-2458): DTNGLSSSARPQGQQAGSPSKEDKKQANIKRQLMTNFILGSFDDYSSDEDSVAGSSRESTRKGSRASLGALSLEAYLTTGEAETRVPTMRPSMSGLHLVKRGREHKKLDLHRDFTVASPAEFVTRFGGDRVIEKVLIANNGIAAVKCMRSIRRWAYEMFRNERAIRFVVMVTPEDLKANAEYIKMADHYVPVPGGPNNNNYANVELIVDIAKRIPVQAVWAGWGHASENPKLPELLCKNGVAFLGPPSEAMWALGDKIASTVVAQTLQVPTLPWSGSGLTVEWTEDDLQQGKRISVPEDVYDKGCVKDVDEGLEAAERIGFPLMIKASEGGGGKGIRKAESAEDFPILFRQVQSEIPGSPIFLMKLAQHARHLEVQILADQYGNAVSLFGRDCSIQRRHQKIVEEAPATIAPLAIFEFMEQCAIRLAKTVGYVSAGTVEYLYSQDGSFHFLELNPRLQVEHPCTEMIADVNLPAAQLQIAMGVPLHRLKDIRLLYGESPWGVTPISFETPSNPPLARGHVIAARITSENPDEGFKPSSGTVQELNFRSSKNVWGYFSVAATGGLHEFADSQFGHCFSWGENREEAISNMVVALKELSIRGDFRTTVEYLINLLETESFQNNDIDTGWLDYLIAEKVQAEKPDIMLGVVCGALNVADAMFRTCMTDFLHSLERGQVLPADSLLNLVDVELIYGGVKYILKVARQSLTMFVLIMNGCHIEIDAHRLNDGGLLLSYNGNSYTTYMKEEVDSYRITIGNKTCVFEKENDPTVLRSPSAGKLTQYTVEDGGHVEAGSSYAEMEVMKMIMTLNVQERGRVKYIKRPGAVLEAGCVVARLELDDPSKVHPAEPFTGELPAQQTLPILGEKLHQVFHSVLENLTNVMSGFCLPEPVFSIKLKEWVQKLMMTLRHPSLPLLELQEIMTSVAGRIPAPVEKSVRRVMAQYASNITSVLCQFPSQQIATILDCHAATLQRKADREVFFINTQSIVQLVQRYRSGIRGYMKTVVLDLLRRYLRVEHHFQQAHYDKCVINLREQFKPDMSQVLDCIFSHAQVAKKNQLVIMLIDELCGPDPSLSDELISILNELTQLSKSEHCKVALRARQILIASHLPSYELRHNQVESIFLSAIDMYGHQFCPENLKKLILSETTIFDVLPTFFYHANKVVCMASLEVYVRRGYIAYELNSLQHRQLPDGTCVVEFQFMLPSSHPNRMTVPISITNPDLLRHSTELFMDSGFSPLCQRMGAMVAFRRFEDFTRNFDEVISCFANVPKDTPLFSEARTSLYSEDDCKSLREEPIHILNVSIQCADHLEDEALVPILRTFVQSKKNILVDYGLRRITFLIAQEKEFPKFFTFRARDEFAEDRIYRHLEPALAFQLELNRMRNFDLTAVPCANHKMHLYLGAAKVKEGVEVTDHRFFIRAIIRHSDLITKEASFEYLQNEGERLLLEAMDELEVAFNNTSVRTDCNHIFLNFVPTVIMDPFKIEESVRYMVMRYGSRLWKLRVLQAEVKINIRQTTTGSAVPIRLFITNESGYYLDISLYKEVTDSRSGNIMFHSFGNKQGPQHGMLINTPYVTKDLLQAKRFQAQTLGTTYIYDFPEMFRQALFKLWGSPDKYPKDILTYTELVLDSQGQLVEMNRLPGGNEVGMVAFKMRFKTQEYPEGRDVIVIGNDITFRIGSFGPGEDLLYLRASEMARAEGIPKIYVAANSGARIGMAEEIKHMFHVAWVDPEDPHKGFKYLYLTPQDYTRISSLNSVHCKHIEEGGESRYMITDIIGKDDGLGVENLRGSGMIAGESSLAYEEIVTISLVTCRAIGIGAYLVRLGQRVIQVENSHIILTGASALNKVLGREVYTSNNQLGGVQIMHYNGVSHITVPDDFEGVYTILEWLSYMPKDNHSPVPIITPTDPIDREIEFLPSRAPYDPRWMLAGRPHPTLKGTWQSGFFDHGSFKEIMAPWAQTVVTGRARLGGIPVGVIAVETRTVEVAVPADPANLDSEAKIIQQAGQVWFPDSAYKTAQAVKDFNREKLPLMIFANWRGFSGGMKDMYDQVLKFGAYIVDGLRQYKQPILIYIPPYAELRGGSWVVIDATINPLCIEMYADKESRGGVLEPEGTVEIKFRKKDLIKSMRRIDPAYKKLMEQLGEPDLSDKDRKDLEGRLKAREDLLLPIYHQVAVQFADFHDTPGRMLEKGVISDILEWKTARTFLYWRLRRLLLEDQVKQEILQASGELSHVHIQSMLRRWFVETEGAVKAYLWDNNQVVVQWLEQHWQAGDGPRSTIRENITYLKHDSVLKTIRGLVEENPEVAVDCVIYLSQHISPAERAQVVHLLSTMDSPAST
Assay: ACC2 assay (spectrophotometric 384 well assay, NADH-linked kinetic method)
Type: biochemical
Conditions: hACC2 construct lacking 128 N-terminal amino acids; coupled lactate dehydrogenase/pyruvate kinase reaction, 340 nm, 25° C.
Output 1 (yes) for records whose IC50 is lower than 0.3 µM, 0 (no) for records at or above 0.3 µM.

INPUT: Is IC50 strictly under 0.3 µM for the entry CC(=O)N[C@@H](C)c1ccc(O[C@@H]2CCN(c3ncnc(N4CCc5nocc5C4)c3F)C2)cc1 [Example 8.212] ?
OUTPUT: 0 (no)

INPUT: Threshold test, IC50 < 0.3 µM: CC(=O)N[C@@H](C)c1ccc(O[C@@H]2CCN(c3nc(N4CCOC(C)(C)C4)ncc3F)C2)cc1 [Example 8.224]
OUTPUT: 1 (yes)

INPUT: Please indicate whether the reported IC50 of C[C@H](NC(=O)C(F)F)c1ccc(OC2CCN(c3ccnc(N(C)CC(F)F)n3)C2)cc1 (some centres unmarked) [Example 5.2] is strictly below 0.3 µM.
OUTPUT: 1 (yes)

INPUT: Lab note: IC50 threshold 0.3 µM. Does this molecule come in strictly under it? CC(=O)N[C@@H](C)c1ccc(O[C@@H]2CCN(c3nc(N4CCCCC4)ncc3F)C2)cc1 [Example 8.8]
OUTPUT: 1 (yes)

INPUT: API: query returns whether the molecule falls strictly under 0.3 µM in IC50. Query: CC(=O)N[C@@H](C)c1ccc(O[C@@H]2CCN(c3nc(N(C)C4CC4)ncc3F)C2)cc1 [Example 8.68]
OUTPUT: 1 (yes)

INPUT: Please state whether IC50 is below 0.3 µM for CC(=O)N[C@@H](C)c1ccc(O[C@@H]2CCN(c3nc(N(C)CCC#N)ncc3Cl)C2)cc1 [Example 8.131]
OUTPUT: 0 (no)

INPUT: A record lists CC(=O)N[C@@H](C)c1ccc(O[C@@H]2CCN(c3nc(N(C)CC(C)C)ncc3Cl)C2)cc1 [Example 8.223] . Is its IC50 below 0.3 µM?
OUTPUT: 1 (yes)

INPUT: Consider CCCOc1ncnc(N2CC[C@@H](Oc3ccc([C@H](C)NC(C)=O)cc3)C2)c1F [Example 7.19] . Does its IC50 lie strictly below 0.3 µM?
OUTPUT: 1 (yes)

INPUT: Hi there! Is IC50 for CC(=O)N[C@@H](C)c1ccc(O[C@@H]2CCN(c3cc(OCC4CC4)ncn3)C2)cc1 [Example 7.3] below 0.3 µM, do you know?
OUTPUT: 0 (no)

INPUT: I wonder whether CC(=O)N[C@@H](C)c1ccc(O[C@@H]2CCN(c3ccnc(N(C)C[C@@H]4CCCO4)n3)C2)cc1 [Example 8.203] has IC50 below 0.3 µM. Can you tell?
OUTPUT: 0 (no)

INPUT: Strictly below 0.3 µM: is that where IC50 of CC(=O)N[C@@H](C)c1ccc(O[C@@H]2CCN(c3ccnc(N4CCOC(C(F)(F)F)C4)n3)C2)cc1 (some centres unmarked) [Example 8.88] sits?
OUTPUT: 1 (yes)

====

Target: human ACC2 (Homo sapiens (Human))
Experiment: ACC2 assay (spectrophotometric 384 well assay, NADH-linked kinetic method)
Format: biochemical
Conditions: hACC2 construct lacking 128 N-terminal amino acids; coupled lactate dehydrogenase/pyruvate kinase reaction, 340 nm, 25° C.
assay-metric: IC50 (nM)
One number for each entry, in nM.

[[record]]
compound = "COC(C)(C)COc1ncnc(N2CC[C@@H](Oc3ccc([C@H](C)NC(C)=O)cc3)C2)c1Cl"
assay_metric = "IC50"
recorded_number = 145


Look at each compound and report its IC50.
1. CC(=O)N[C@@H](C)c1ccc(O[C@@H]2CCN(c3ncnc(NC4CCCC4)c3Cl)C2)cc1
2. CC(=O)N[C@@H](C)c1ccc(O[C@@H]2CCN(c3ncnc(OCC4CC4(F)F)c3F)C2)cc1 (stereo partly drawn)

OUTPUT:
105
63

====

I'd appreciate it if you could supply IC50 values for the items below.
Biological target: human ACC2 (Homo sapiens (Human), UniProt O00763)
Test: ACC2 assay (spectrophotometric 384 well assay, NADH-linked kinetic method)
Assay type: biochemical
Settings: hACC2 construct lacking 128 N-terminal amino acids; coupled lactate dehydrogenase/pyruvate kinase reaction, 340 nm, 25° C.

Guide cases for IC50, answers given:
[[record]]
compound = "CC(=O)N[C@@H](C)c1ccc(O[C@@H]2CCN(c3ccnc(N4CCCC(F)(F)C4)n3)C2)cc1"
result = "172 nM"

[[record]]
compound = "CC(=O)N[C@@H](C)c1ccc(O[C@@H]2CCN(c3ccnc(N(C)CCC#N)n3)C2)cc1"
result = "349 nM"

[[record]]
compound = "CC(=O)N[C@@H](C)c1ccc(O[C@@H]2CCN(c3nc(N(C)C4CCCOC4)ncc3F)C2)cc1 (stereo partly drawn)"
result = "105 nM"

[[record]]
compound = "C[C@H](NC(=O)OCC1CC1)c1ccc(O[C@@H]2CCN(c3ncnc(OCC4CC4)c3F)C2)cc1"
result = "2900 nM"

[[record]]
compound = "CCN(C)C(=O)N[C@@H](C)c1ccc(OC2CCN(c3ccnc(N4CCOCC4)n3)C2)cc1 (stereo partly drawn)"
result = "374 nM"

[[record]]
compound = "CC(=O)N[C@@H](C)c1ccc(O[C@@H]2CCN(c3nc(N4CCC(C)(O)CC4)ncc3F)C2)cc1"
result = "1350 nM"

[[record]]
compound = "CC(=O)N[C@@H](C)c1ccc(O[C@@H]2CCN(c3ncnc(N4CCCCC4)c3F)C2)cc1"
result = "105 nM"

[[record]]
compound = "CC(=O)N[C@@H](C)c1ccc(O[C@@H]2CCN(c3ccnc(N(CCC#N)C4CCCC4)n3)C2)cc1"
result = "375 nM"


For each entry beneath this line, provide reported IC50.
1. CC(=O)N[C@@H](C)c1ccc(O[C@@H]2CCN(c3nc(N(C)CC(F)(F)F)ncc3F)C2)cc1
2. COc1c(OCC2CC2)ncnc1N1CC[C@@H](Oc2ccc([C@H](C)NC(C)=O)cc2)C1

OUTPUT:
1: 184 nM; 2: 39 nM

Below are 3 compounds. Give each one its IC50.
1. CC(=O)N[C@@H](C)c1ccc(O[C@@H]2CCN(c3ncnc(N4CC[C@@H](F)C4)c3F)C2)cc1 [Example 8.287]
2. CCN(CC)c1ncnc(N2CC[C@@H](Oc3ccc([C@H](C)NC(C)=O)cc3)C2)c1F
3. CC(=O)N[C@@H](C)c1ccc(O[C@@H]2CCN(c3ccnc(N(C)CC(F)F)n3)C2)cc1

OUTPUT:
1: 455 nM; 2: 79 nM; 3: 55 nM

Batch request: IC50 for each of the following compounds.
1. CC(=O)N[C@@H](C)c1ccc(O[C@@H]2CCN(c3nc(N4CCOCC4C)ncc3Cl)C2)cc1 (stereo partly drawn)
2. CC(=O)N[C@@H](C)c1ccc(O[C@@H]2CCN(c3ncc(OCC(C)C)cn3)C2)cc1
3. CC(=O)N[C@@H](C)c1ccc(O[C@@H]2CCN(c3nc(N(C)C)ncc3Cl)C2)cc1
4. COCCN(CC(F)F)c1nccc(N2CC[C@@H](Oc3ccc([C@H](C)NC(C)=O)cc3)C2)n1
5. CC(=O)N[C@@H](C)c1ccc(O[C@@H]2CCN(c3ncnc(N4CCC(F)(F)CC4)c3F)C2)cc1
6. CC(=O)N[C@@H](C)c1ccc(O[C@@H]2CCN(c3ncnc(N4CCC(F)(F)C4)c3F)C2)cc1
7. CC(=O)N[C@@H](C)c1ccc(O[C@@H]2CCN(c3ncnc(N(C)C4CCCOC4)c3F)C2)cc1 (stereo partly drawn)

OUTPUT:
1: 714 nM; 2: 974 nM; 3: 124 nM; 4: 165 nM; 5: 97 nM; 6: 109 nM; 7: 314 nM
